# reported TGI; entries follow
System: UACC-62 melanoma
Test protocol: NCI tumour cell line growth inhibition, 48 h

# example entries with known answers
# compound `CC(=O)On1c(-c2ccccc2-c2nc3ccccc3n2OC(C)=O)nc2ccccc21` ; its TGI = > 100 µM

# compound `COC(=O)c1cnc(Cl)cn1` ; its TGI = > 100 µM

# compound `COc1cccc(/C=C/C(=O)c2ccc(Cl)cc2Cl)c1` ; its TGI = 15.5 µM

# compound CCCCCCCCCCCCCCCCOC[C@@H](COC(c1ccccc1)(c1ccccc1)c1ccccc1)O[P+](=S)OC (stereo not given in full) ; its TGI = 14.5 µM

# compound `COc1cc2c(=O)cnoc2cc1O` ; its TGI = > 100 µM

---
# compound CC1=NN(C(=O)c2ccc([N+](=O)[O-])cc2)C(=O)C1N=Nc1ccccc1C(=O)O (stereo not given) ; its TGI = > 100 µM

# compound CCOC(=O)CC1C(COC(=O)NC)OC(n2cnc3c(NC(=O)Nc4ccccc4)ncnc32)C1O[Si](C)(C)C(C)(C)C (stereo not given) ; its TGI = > 100 µM

----------
System: KM12 colon
Test protocol: NCI tumour cell line growth inhibition, 48 h
# reported TGI; entries follow

COC(=O)C1[C@H](c2cc(OC)c(OC)c(OC)c2)OC(=O)C1(C(=O)OC)C(=O)c1ccc2c(c1)OCO2 (some centres undefined) tested on KM12 colon gave TGI: > 100 µM

COc1ccc(-c2c3c(n(C4OC(COC(C)=O)C(OC(C)=O)C(OC(C)=O)C4OC(C)=O)c(=S)c2C#N)CC(C)(C)CC3=O)cc1 (centres undefined) tested on KM12 colon gave TGI: > 100 µM

CCOC(=O)C(NC(=O)c1ccccc1)(N1CCOCC1)C(F)(F)F (centres undefined) tested on KM12 colon gave TGI: > 100 µM

`O=C1Nc2ccc(Cl)cc2/C1=C\c1c(Cl)nc2sccn12` tested on KM12 colon gave TGI: 23.4 µM

`COc1cc(CNc2ccccc2C(=O)N2CCN(C(=O)c3cc(-c4cc(OC)c(OC)c(OC)c4)n4nc(-c5ccccc5)cc4n3)CC2)cc(OC)c1OC` tested on KM12 colon gave TGI: > 100 µM

---
`Cc1cc(C)c(NC(=S)NC(=O)c2ccccc2)cc1C` tested on KM12 colon gave TGI: > 100 µM

`c1csc(C[N+]23CN4CN(CN(C4)C2)C3)c1` tested on KM12 colon gave TGI: > 100 µM

C=CCO[C@]1(CC=C)C(=O)C(=O)OC1C1COC(C)(C)O1 (some centres undefined) tested on KM12 colon gave TGI: 39.3 µM

`Cc1cc(=O)oc2c(C)c(OCCCOc3ccc4c(C)cc(=O)oc4c3C)ccc12` tested on KM12 colon gave TGI: > 100 µM

----------
System: MOLT-4 leukemia
Test protocol: NCI tumour cell line growth inhibition, 48 h
# reported TGI; entries follow

# example entries with known answers
# molecule O=C1OC(O)C(Oc2c(Cl)cccc2Cl)=C1Cl (stereo not given) ; its TGI = 85.7 µM

# molecule `COc1ccc2c(c1)CC[C@H](O)/C2=C/c1cc(OC)c(OC)c(OC)c1` ; its TGI = > 100 µM

# molecule Nc1ccn(C2OC(COC(=O)C34CC5CC(CC(C5)C3)C4)C(O)C2O)c(=O)n1 (stereo not given) ; its TGI = > 100 µM

# molecule CCN(CC)CCCC(C)N=C(C1=C(C(=NC(C)CCCN(CC)CC)c2cccc(OC)c2)C(=O)NC1=O)c1cccc(OC)c1 (stereo not given) ; its TGI = 4.24 µM

# molecule `CC1(CCC(=O)OC2CCCCC2)OCCO1` ; its TGI = > 100 µM

# molecule `N#CCN/C=C\C(=O)c1ccc(Cl)cc1` ; its TGI = > 100 µM

# molecule `COc1ccc(OC)c(-c2cc(-c3ccc(Cl)cc3)nn2-c2ccc(S(=O)(=O)NC(C)=O)cc2)c1` ; its TGI = 27.8 µM

# molecule FC1C2=C(SC1(F)F)C1CCC2C1 (stereo not given) ; its TGI = > 100 µM

# molecule `Clc1ccc(C(SCc2ccccc2)SCc2ccccc2)cc1` ; its TGI = > 10 µM

---
# molecule CCCCCCCCCCCCCCCCOC[C@@H](COC(c1ccccc1)(c1ccccc1)c1ccccc1)O[P+](=S)OC (stereo not given in full) ; its TGI = 53.1 µM

----------
Tested on: MOLT-4 leukemia
Test protocol: NCI tumour cell line growth inhibition, 48 h
# reported TGI; entries follow
The reply should be a number in µM, with the unit left off.

# compound `CC/C=C(\C(=C/CC)[N+](=O)[O-])[N+](=O)[O-]` ; its TGI = 64.9

# compound `S=C(c1c[nH]c2ccccc12)N1CCN(Cc2ccccc2)CC1` ; its TGI = 47.5

# compound `Cc1cn([C@@H]2O[C@H](CO[Si](C)(C)C(C)(C)C)[C@]3(O[C@H]3C(=O)NN)[C@H]2O[Si](C)(C)C(C)(C)C)c(=O)[nH]c1=O` ; its TGI = 6.02

# compound CC1(C)C2CC(=O)C1(C)C(OCc1ccccc1)C2 (centres undefined) ; its TGI = 46.6

# compound CCCCCCCCCCCCCCCC(=O)N(CCCCCCCCCCC(=O)O)CC(O)C(O)C(OC1OC(CO)C(O)C(O)C1O)C(O)CO (centres undefined) ; its TGI = 46.4

Okay, now this compound:
# compound `CCc1cccc(CC)c1NC(=O)C1=C(C)NC(C)=C(C(=O)Nc2c(CC)cccc2CC)C1c1ccc([N+](=O)[O-])cc1` ; its TGI = 43.3

----------
System: RXF-631 renal
Test protocol: NCI tumour cell line growth inhibition, 48 h
Value type: TGI

# example entries with known answers
# compound `O=S1Nc2c(Cl)cc(Cl)c3c(Cl)cc(Cl)c(c23)N1` ; its TGI = > 100 µM

# compound `CCOc1cccc2ccc[n+](CC)c12` ; its TGI = > 100 µM

# compound CC[N+]1(C)CCC(O)(c2ccc(OC)cc2)C(C(=O)c2ccc(OC)cc2)C1 (stereo not given) ; its TGI = 34.5 µM

---
# compound O=[N+]([O-])C1Cc2ccccc2OC1c1ccccc1 (stereo not given) ; its TGI = > 100 µM

# compound `CCOC(=O)C(C)(C)Oc1ccc(/C=C/C(=O)c2ccc(Cl)cc2)cc1` ; its TGI = 38.5 µM

----------
Tested on: SF-539 CNS
Test protocol: NCI tumour cell line growth inhibition, 48 h
# binarize TGI: threshold 40 µM inclusive, high side 1, low side 0

Q: Determine whether measured TGI meets or exceeds 40 µM for `COc1ccc(C(=O)c2cc3c(N)c(C(=O)Nc4ccc(C)cc4)sc3nc2C)cc1`
A: 0

Q: Determine whether measured TGI meets or exceeds 40 µM for `O=C(CNc1ccccc1[N+](=O)[O-])Nn1c(-c2ccccc2)nc2ccccc2c1=O`
A: 1

---
Q: Determine whether measured TGI meets or exceeds 40 µM for `SCCSCCCSCCS`
A: 1

Q: Determine whether measured TGI meets or exceeds 40 µM for `CN(C)CCCn1nc(N)c2nc3cc(Cl)ccc3nc21`
A: 1

Q: Determine whether measured TGI meets or exceeds 40 µM for `FC(F)(F)c1cccc(-c2nc3ccccc3c3c2[C@@]2(N4CCCC4)CCCC[C@@H]32)c1`
A: 1

----------
System: BT-549 breast
Test protocol: NCI tumour cell line growth inhibition, 48 h
Value type: TGI

# example entries with known answers
# molecule CC(=O)OCC1OC(Oc2cc(C)c(O)cc2C/C=C(\C)CC/C=C(\C)CC(=O)CC(C)C)C(O)C(OC(C)=O)C1OC(C)=O (stereo not given) ; its TGI = 31.2 µM

# molecule `Cc1cc(C)c(Cn2cnc3c(Cl)ncnc32)c(C)c1CCl` ; its TGI = > 100 µM

# molecule CCCC(CCC)C(=O)OCC1(CO)C/C(=C\c2ccc(F)cc2)C(=O)O1 (stereo not given) ; its TGI = 22.6 µM

# molecule Nc1nc2c(c(=O)[nH]1)C(c1ccc(Cl)cc1)C=C(c1ccccc1)N2 (stereo not given) ; its TGI = > 100 µM

Okay, now this molecule:
# molecule CC1=C(C(=O)c2ccccc2)C23C(=O)N(c4ccccc4)C(=O)C2=C(O)C=CC3(O)N1 (stereo not given) ; its TGI = 49.2 µM

----------
Tested on: DLD-1 colon
Test protocol: NCI tumour cell line growth inhibition, 48 h
# reported TGI; entries follow
The reply should be a number in µM, with the unit left off.

# example entries with known answers
# compound O=C1OC(O)C(Oc2c(Cl)cccc2Cl)=C1Cl (configuration not stated) ; its TGI = 32.1

# compound `O=S1Nc2c(Cl)cc(Cl)c3c(Cl)cc(Cl)c(c23)N1` ; its TGI = 74.8

Okay, now this compound:
# compound `O=C1C=CC(=O)c2cc(Sc3ccccc3)c(=O)ccc21` ; its TGI = 39

----------
Tested on: SN12C renal
Test protocol: NCI tumour cell line growth inhibition, 48 h
# binarize TGI: threshold 10 µM inclusive, high side yes, low side no

Q: Determine whether measured TGI meets or exceeds 10 µM for `COc1ccc(OC)c2c1[nH]c(=O)c1c3ncccc3cn21`
A: yes

Q: Determine whether measured TGI meets or exceeds 10 µM for `COc1ccc(CN=C(N)N)c2ccccc12`
A: yes

Q: Determine whether measured TGI meets or exceeds 10 µM for `Nc1nc(N)c2cc(NCc3ccc(Cl)c(Cl)c3)ccc2n1`
A: no

Q: Determine whether measured TGI meets or exceeds 10 µM for `CCNC(=O)c1c(O)c2ccccc2[nH]c1=O`
A: yes

Q: Determine whether measured TGI meets or exceeds 10 µM for `O=C(Nc1ccc(-n2ccc3c(NC(=O)c4ccccc4)ncnc32)cc1)Nc1cccc(Cl)c1Cl`
A: no

Q: Determine whether measured TGI meets or exceeds 10 µM for `O=c1[nH]nc(Cc2ccccc2)n1CCO`
A: yes

Q: Determine whether measured TGI meets or exceeds 10 µM for `CCOC(=N)/C(=C1\OC(N)=C(c2ccc(Cl)cc2)C1=O)c1ccc(Cl)cc1`
A: yes

Q: Determine whether measured TGI meets or exceeds 10 µM for `CN(C)C=C1C(Cl)=C(C=O)CC(C=O)=C1Cl`
A: yes

---
Q: Determine whether measured TGI meets or exceeds 10 µM for `CN1C(=O)C(=O)c2cc3c(c4c2c1cc1ccccc14)OCO3`
A: yes

Q: Determine whether measured TGI meets or exceeds 10 µM for CC(C)(C)C(=O)OCC1CCC(n2cnc3c(=O)[nH]c(N)nc32)O1 (centres undefined)
A: yes

Q: Determine whether measured TGI meets or exceeds 10 µM for `FC(F)(F)c1cccc(-c2nc3ccccc3c3c2[C@@]2(N4CCCC4)CCCC[C@@H]32)c1`
A: yes

Q: Determine whether measured TGI meets or exceeds 10 µM for `CN(C)c1nc(=Nc2cccc(Cl)c2)ss1`
A: yes

Q: Determine whether measured TGI meets or exceeds 10 µM for `CN(/N=C/c1ccnc2ccccc12)c1ccc(Cl)cc1[N+](=O)[O-]`
A: yes

Q: Determine whether measured TGI meets or exceeds 10 µM for COc1nc(N)nc2c1ncn2C1OC(CO)C(O)C1O (centres undefined)
A: yes

Q: Determine whether measured TGI meets or exceeds 10 µM for `Cc1cn([C@@H]2O[C@H](CO[Si](C)(C)C(C)(C)C)[C@]3(O[C@H]3C(=O)NN)[C@H]2O[Si](C)(C)C(C)(C)C)c(=O)[nH]c1=O`
A: yes

Q: Determine whether measured TGI meets or exceeds 10 µM for `COc1cc(CNc2ccccc2C(=O)N2CCN(C(=O)c3cc(-c4cc(OC)c(OC)c(OC)c4)n4nc(-c5ccccc5)cc4n3)CC2)cc(OC)c1OC`
A: yes

Q: Determine whether measured TGI meets or exceeds 10 µM for `CC[C@H]1C=CCC[C@@]2(C[C@@H]3CC[C@H]4[C@@H](C(=O)OCCCCCCCCCCCCCCCC(=O)N(CCCN)C[C@@H](O)CCN)[C@@]5(CCC[C@@H](C)O5)NC(=[N+]34)N2)O1`
A: no

Q: Determine whether measured TGI meets or exceeds 10 µM for `CNC(=O)Cc1nc(-c2cccc(NS(=O)(=O)c3c(F)cccc3F)c2F)c(-c2ccnc(Nc3ccccc3)n2)s1`
A: yes

Numbers sourced from PubChem BioAssay (NCI).
